- assay-target: LXRβ (Homo sapiens (Human))
- Sequence (P55055 whole entry, the tested form may be a part): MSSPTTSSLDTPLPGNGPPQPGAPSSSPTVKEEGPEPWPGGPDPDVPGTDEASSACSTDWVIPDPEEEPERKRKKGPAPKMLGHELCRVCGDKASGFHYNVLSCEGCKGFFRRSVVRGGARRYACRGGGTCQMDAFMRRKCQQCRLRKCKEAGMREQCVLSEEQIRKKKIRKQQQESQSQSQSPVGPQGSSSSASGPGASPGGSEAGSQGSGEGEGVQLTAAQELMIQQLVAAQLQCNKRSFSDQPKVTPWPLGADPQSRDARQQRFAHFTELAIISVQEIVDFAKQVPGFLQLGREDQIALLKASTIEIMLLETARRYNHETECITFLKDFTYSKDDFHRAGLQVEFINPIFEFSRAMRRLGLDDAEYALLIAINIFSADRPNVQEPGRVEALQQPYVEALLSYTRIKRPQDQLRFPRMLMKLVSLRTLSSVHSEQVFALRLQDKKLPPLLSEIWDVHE
- assay-explanation: In vitro assay LXRβ: PathHunter NHR CHO cells, LXRβ / Steroid Receptor Co-activator Peptide enzyme fragment complementation
- Format: cell-based
- setup-conditions: PathHunter NHR CHO cells, full-length human LXRβ and SRCP, chemiluminescent signal; read-out: LXRβ PPI
Entries and their EC50 values follow.

{"molecule": "CON(C[C@H](C)O)C(=O)CC[C@@H](C)[C@H]1CC[C@H]2[C@@H]3CC=C4C[C@@H](O)CC[C@]4(C)[C@H]3CC[C@]12C", "assay-target": "LXRβ (Homo sapiens (Human))", "EC50": "0.25 to 1 µM"}
{"molecule": "C[C@H](CCC(=O)N1CCN(c2ccncc2)[C@@H](C)C1)[C@H]1CC[C@H]2[C@@H]3CC=C4C[C@@H](O)CC[C@]4(C)[C@H]3CC[C@]12C", "assay-target": "LXRβ (Homo sapiens (Human))", "EC50": "> 10 µM"}
{"molecule": "C[C@H](CC(=O)N1CCN(C(=O)c2cnn(C)c2)CC1)[C@H]1CC[C@H]2[C@@H]3CC=C4C[C@@H](O)CC[C@]4(C)[C@H]3CC[C@]12C", "assay-target": "LXRβ (Homo sapiens (Human))", "EC50": "> 10 µM"}
{"molecule": "C[C@H](CCC(=O)N1CCN(C)C(=O)C1)[C@H]1CC[C@H]2[C@@H]3CC=C4C[C@@H](O)CC[C@]4(C)[C@H]3CC[C@]12C", "assay-target": "LXRβ (Homo sapiens (Human))", "EC50": "> 10 µM"}
{"molecule": "Cc1ncccc1O[C@@H](C)[C@H]1CC[C@H]2[C@@H]3CC=C4C[C@@H](O)CC[C@]4(C)[C@H]3CC[C@]12C", "assay-target": "LXRβ (Homo sapiens (Human))", "EC50": "> 10 µM"}
{"molecule": "C[C@H](CCC(=O)N1CCN(C(=O)c2ccn(C)n2)CC1)[C@H]1CC[C@H]2[C@@H]3CC=C4C[C@@H](O)CC[C@]4(C)[C@H]3CC[C@]12C", "assay-target": "LXRβ (Homo sapiens (Human))", "EC50": "> 10 µM"}

====

Entries and their pIC50 values follow.
- assay-target: SREBP-2 (Homo sapiens (Human), UniProt Q12772)
- assay-explanation: In vitro assay SREBP-2: PathHunter U2OS SREBP-2 Nuclear Translocation Cell Line, U18666A-stimulated
- Format: cell-based
- setup-conditions: PathHunter U2OS SREBP-2 nuclear translocation cells, U18666A 10 μM, overnight (16 hours)
pIC50: −log10 of the molar value.
measure-name: pIC50

{"compound": "C[C@H](CCc1ncco1)[C@H]1CC[C@H]2[C@@H]3CC=C4C[C@@H](O)CC[C@]4(C)[C@H]3CC[C@]12C [Example 137]", "result": "6.00 to 6.60"}
{"compound": "C[C@H](CCC(=O)N1CCN(C(=O)c2cnn(C)c2)[C@@H](C)C1)[C@H]1CC[C@H]2[C@@H]3CC=C4C[C@@H](O)CC[C@]4(C)[C@H]3CC[C@]12C [Example 565]", "result": "> 6.60"}
{"compound": "COc1cc(N2CCN(C(=O)CC[C@@H](C)[C@H]3CC[C@H]4[C@@H]5CC=C6C[C@@H](O)CC[C@]6(C)[C@H]5CC[C@]34C)CC2)ncn1 [Example 203]", "result": "> 6.60"}
